I'd be grateful if you could share measured protein stability index for these entries.
Tested on: Saccharomyces cerevisiae
assay_comment: protein stability index of tFT-peptide fusion (C-terminal peptide) (PSI (0-1 scale)); higher = more stable (slower turnover)
experimental_conditions: genetic background: das1 deletion; temperature: 30 C

Request: State, in one line, measured protein stability index of FKQSEITLYRTR [PEP8 C-terminal 12 aa]
Result: 0.693

Request: Return reported protein stability index. Input sequence: QAKFFYQDLMSL [YHL046W-A C-terminal 12 aa]
Result: 0.72

Request: Report measured protein stability index; entry is MSSTKKVRFVML [RMD5 C-terminal 12 aa]
Result: 0.696

Source listed as the supplement of paper PMC10724198.
